# tested on: ROS1 (Homo sapiens, UniProt P08922)
# Construct: purchased Carna Biosciences 08-163
# Sequence (P08922 28-2347): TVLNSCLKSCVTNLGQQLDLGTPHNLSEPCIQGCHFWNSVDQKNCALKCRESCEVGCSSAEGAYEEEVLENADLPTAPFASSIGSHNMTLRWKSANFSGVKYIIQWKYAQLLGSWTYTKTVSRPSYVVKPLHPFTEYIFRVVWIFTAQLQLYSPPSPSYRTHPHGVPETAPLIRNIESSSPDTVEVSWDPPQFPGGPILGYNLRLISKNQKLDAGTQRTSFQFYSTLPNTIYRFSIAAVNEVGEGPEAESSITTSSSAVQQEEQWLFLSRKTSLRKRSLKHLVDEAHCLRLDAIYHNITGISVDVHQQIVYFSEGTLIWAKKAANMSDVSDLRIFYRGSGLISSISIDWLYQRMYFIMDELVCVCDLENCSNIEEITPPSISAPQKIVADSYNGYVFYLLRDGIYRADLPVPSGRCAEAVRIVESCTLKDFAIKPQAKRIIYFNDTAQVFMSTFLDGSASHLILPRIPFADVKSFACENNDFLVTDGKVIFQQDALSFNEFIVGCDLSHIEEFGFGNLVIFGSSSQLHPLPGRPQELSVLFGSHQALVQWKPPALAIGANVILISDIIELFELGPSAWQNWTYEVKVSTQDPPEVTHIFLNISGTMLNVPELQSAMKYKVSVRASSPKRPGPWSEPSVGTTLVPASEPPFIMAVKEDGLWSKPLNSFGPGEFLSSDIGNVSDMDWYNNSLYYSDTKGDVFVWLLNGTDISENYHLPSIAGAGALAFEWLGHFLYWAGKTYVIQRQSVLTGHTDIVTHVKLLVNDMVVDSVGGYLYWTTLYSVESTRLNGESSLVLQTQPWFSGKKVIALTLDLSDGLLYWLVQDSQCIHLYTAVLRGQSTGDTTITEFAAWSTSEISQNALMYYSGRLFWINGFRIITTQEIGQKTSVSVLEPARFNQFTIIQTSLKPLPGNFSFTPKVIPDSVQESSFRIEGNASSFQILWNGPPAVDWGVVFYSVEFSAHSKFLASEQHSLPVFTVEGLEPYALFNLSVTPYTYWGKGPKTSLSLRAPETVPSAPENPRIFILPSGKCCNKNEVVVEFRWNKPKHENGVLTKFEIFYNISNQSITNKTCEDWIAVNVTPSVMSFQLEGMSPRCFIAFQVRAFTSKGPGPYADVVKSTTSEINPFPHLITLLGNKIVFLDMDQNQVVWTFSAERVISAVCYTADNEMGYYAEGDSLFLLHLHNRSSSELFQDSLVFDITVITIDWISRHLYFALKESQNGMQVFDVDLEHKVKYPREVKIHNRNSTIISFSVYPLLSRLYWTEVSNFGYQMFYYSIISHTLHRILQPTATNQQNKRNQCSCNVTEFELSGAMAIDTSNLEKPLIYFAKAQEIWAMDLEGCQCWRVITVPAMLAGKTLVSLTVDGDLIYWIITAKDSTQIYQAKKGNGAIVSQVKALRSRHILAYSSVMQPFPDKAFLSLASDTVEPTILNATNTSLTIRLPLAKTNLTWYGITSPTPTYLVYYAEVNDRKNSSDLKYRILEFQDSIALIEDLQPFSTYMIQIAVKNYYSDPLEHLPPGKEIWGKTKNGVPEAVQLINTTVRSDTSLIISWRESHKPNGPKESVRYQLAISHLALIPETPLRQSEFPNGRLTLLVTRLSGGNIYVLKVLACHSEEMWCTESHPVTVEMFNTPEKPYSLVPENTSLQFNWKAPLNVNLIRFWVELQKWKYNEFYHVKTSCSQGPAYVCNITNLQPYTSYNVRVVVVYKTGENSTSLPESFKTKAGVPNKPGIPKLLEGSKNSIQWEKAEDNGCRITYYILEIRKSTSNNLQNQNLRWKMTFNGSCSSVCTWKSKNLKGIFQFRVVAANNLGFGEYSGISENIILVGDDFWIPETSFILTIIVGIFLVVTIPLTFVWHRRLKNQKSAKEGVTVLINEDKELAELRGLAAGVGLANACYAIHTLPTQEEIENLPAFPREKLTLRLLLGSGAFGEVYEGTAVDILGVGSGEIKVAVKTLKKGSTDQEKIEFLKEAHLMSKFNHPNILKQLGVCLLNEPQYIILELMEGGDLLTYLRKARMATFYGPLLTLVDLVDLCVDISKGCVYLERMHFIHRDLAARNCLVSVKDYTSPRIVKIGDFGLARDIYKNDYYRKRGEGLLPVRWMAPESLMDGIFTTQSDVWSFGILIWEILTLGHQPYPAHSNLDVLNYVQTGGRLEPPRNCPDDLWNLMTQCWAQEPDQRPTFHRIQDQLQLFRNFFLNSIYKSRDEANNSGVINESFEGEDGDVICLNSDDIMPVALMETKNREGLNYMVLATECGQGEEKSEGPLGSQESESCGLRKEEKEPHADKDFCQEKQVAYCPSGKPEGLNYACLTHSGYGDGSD
# procedure summary: ROS1 autophosphorylation inhibitory activity evaluation (ADP-Glo)
# Format: biochemical
# condition set: 200 nM inactive ROS1, ATP 1 mM, 25° C. 1.5 hours, ADP generated, four separate measurements
Listed here are compounds together with their documented IC50.

Example cases with answers are listed next.
# smiles code, IC50
records = [
    ("CN(Cc1cccc(F)c1F)c1ccc2ncc(-c3ccc(N4C[C@@H](N)CC4=O)nc3)n2n1", "20 to 100 nM"),
    ("CN(Cc1cccc(F)c1)c1ccc2ncc(-c3ccc(N4C[C@@H](N)CC4=O)c(C#N)c3)n2n1", "< 20 nM"),
    ("C[C@@H](Nc1ccc2ncc(-c3cccc(OC[C@@H]4CCN4)c3)n2n1)c1cccc(F)c1", "20 to 100 nM"),
]

Switching to the query record.
Kindly note the recorded IC50 for C[C@@H](Nc1ccc2ncc(-c3cccc(OCCCN)c3)n2n1)c1cccc(F)c1 , which is < 20 nM

====

# Tested on: HCC78 cells having ROS1 fusion gene
# procedure summary: HCC78 cell growth assay (CellTiter-Glo)
# Type: cell-based
# condition set: Homo sapiens, HCC78, 72 h, 72 hours culture, 2% FBS medium, luminescence, four separate measurements; read-out: growth inhibitory effect on HCC78 cells having ROS1 fusion gene IC50
observable: IC50

Example cases with answers are listed next.
# compound, IC50
records = [
    ("CN(Cc1cccc(F)c1)c1ccc2ncc(-c3ccc(N4C[C@@H](N)CC4=O)c(F)c3)n2n1", "20 to 100 nM"),
    ("CN(Cc1cc(F)ccc1F)c1ccc2ncc(-c3ccc(N4C[C@@H](N)CC4=O)cc3)n2n1", "< 20 nM"),
    ("CN(Cc1cccc(F)c1)c1ccc2ncc(-c3ccc(N4CC(N)CC4=O)cc3)n2n1 (stereo not shown)", "20 to 100 nM"),
]

Switching to the query record.
Kindly note the recorded IC50 for C[C@@H](N)COc1ccc(-c2cnc3ccc(N[C@H](C)c4cccc(F)c4)nn23)cn1 , which is < 20 nM

====

# Tested on: HCC78 cells having ROS1 fusion gene
# procedure summary: HCC78 cell growth assay (CellTiter-Glo)
# Assay type: cell-based
# condition set: Homo sapiens, HCC78, 72 h, 72 hours culture, 2% FBS medium, luminescence, four separate measurements; read-out: growth inhibitory effect on HCC78 cells having ROS1 fusion gene IC50
observable: IC50

Example cases with answers are listed next.
# molecule, observable, endpoint result
records = [
    ("CN(Cc1cccc(F)c1)c1ccc2ncc(-c3ccc(N4C[C@@H](N)CC4=O)nc3)n2n1", "IC50", "20 to 100 nM"),
    ("C[C@@H](Oc1ccc2ncc(-c3ccc(N4C[C@@H](N)CC4=O)cc3)n2n1)c1cccc(F)c1", "IC50", "< 20 nM"),
    ("C[C@@H](Oc1ccc2ncc(-c3ccc(N4C[C@@H](N(C)C)CC4=O)cc3)n2n1)c1cccc(F)c1", "IC50", "100 to 600 nM"),
    ("C[C@@H](Nc1ccc2ncc(-c3ccc(OCCNC4CC4)cc3)n2n1)c1cccc(F)c1", "IC50", "20 to 100 nM"),
    ("CC(Oc1ccc2ncc(-c3ccc(N4C[C@@H](N)CC4=O)cc3)n2n1)c1cn(C(F)F)nn1 (some centres unmarked)", "IC50", "100 to 600 nM"),
]

Kindly note the recorded IC50 for c1ccc(CNc2ccc3ncc(-c4ccc(O[C@@H]5CCNC5)cc4)n3n2)cc1 , which is 20 to 100 nM

Kindly note the recorded IC50 for CN(Cc1cc(F)ccc1F)c1ccc2ncc(-c3ccc(N4C[C@@H](N)CC4=O)nc3)n2n1 , which is 20 to 100 nM

Kindly note the recorded IC50 for C[C@@H](Nc1ccc2ncc(-c3ccc(N4C[C@@H](N)CC4=O)cc3F)n2n1)c1cccc(F)c1 , which is < 20 nM
